pKi: −log10 of the molar value.
Study the reported pKi values for UniProt P06239 given below; they originate from different publications.

Example entries and their recorded answers appear below.
CSc1sc(-c2nc(Nc3cccc(OCCCN4CCC[C@H]4CO)c3)ncc2C)c(-c2cccnc2)c1C#N	> 7.00
COCCN(CCOC)S(=O)(=O)c1ccc(-c2[nH]c3ncnc(NCC4CCCO4)c3c2-c2ccccc2)cc1 (stereo not drawn)	> 8.00

query: // query pKi value for entry c1ccc(-c2c(-c3ccc(OCCN4CCCC4)cc3)[nH]c3ncnc(NCC4CCCO4)c23)cc1 (stereo not drawn)
result: > 8.00

query: // query pKi value for entry CSc1sc(-c2ccnc(Nc3cccc(NC(=O)CCC4NC(=O)CNC4=O)c3)n2)c(-c2cccnc2)c1C#N (stereo not drawn)
result: > 7.00

query: // query pKi value for entry CSc1sc(-c2nc(Nc3cccc(OCCNCCO)c3)ncc2C)c(-c2cccnc2)c1C#N
result: > 7.00

query: // query pKi value for entry C=CCCn1nc(Nc2c(C)cccc2C)c2cnc(Nc3ccccc3)nc21
result: > 8.00

query: // query pKi value for entry COCCOc1ccc(Nc2ncc3c(Nc4c(C)cccc4C)nn(CCN4CCOCC4)c3n2)cc1
result: > 8.00

query: // query pKi value for entry CCOc1sc(-c2ccnc(Nc3ccccc3)n2)c(-c2ccc(Cl)cc2)c1C#N
result: 6.00 to 7.00

query: // query pKi value for entry Cc1onc(C2CCCCC2)c1-c1ccnc(Nc2cccc(OCCCCN3CCN(CCO)CC3)c2)n1
result: > 7.00

query: // query pKi value for entry Cc1cccc(C)c1Nc1nn(CC2CCOCC2)c2nc(Nc3ccc(OCCCN4CCCCC4)c(F)c3)ncc12
result: > 8.00

query: // query pKi value for entry Cc1onc(C2CCCCC2)c1-c1ccnc(Nc2cccc(OCCN3CCCCC3)c2)n1
result: > 7.00

query: // query pKi value for entry CSc1sc(-c2ccnc(Nc3cccc(OCCCNCCO)c3)n2)c(-c2cccc(OCc3ccccc3)c2)c1C#N
result: > 7.00
